Readings of IC50 for the listed compounds
biological target: human P2X7 (Homo sapiens (Human), UniProt Q99572); assay: Human P2X7 functional assay (Ca2+ influx, Fluo-4, FDSS); settings: antagonistic activity with respect to the human P2X7 receptor; BzATP final concentration 80 microM
Sequence (Q99572 whole entry): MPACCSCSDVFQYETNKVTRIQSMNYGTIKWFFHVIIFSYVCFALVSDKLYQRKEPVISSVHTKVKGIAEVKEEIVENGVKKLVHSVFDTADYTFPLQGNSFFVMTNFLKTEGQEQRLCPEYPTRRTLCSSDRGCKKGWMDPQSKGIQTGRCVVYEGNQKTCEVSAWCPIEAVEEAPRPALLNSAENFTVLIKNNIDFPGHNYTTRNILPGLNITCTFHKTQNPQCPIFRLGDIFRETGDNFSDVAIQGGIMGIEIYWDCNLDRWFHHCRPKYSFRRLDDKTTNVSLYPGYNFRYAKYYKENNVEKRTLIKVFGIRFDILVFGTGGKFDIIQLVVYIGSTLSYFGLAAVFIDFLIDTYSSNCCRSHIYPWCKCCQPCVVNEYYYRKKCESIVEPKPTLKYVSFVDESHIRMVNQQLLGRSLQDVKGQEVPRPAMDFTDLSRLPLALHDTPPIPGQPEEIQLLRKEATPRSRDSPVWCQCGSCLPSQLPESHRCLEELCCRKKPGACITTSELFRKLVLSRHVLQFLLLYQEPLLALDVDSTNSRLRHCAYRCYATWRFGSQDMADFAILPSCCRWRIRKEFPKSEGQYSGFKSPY

smilesText	IC50
CO[C@H]1CC[C@@](F)(C(=O)NCc2ccc(Cl)cc2F)c2cccnc21	< 0.05 µM

Look up human P2X7 (Homo sapiens (Human), UniProt Q99572) data: IC50 of Cc1cnc2c(c1)[C@](F)(C(=O)NCc1ccc(F)cc1Cl)CC[C@]2(C)O , then report it. 0.301 to 1 µM

Give the observed IC50 of O=C(NCc1ccc(Cl)cc1Cl)[C@]1(F)CC[C@H](O)c2ncc(F)cc21 for human P2X7 (Homo sapiens (Human), UniProt Q99572). < 0.05 µM

Enter IC50 (test system human P2X7 (Homo sapiens (Human), UniProt Q99572)) for C[C@@]1(O)CC[C@@](F)(C(=O)NCC2(N3CCOCC3)CCCCC2)c2cccnc21 1 to 3 µM

# credit: patent US11077100B2
